- study system: UniProt:P28335
- Sequence (P28335 33-458): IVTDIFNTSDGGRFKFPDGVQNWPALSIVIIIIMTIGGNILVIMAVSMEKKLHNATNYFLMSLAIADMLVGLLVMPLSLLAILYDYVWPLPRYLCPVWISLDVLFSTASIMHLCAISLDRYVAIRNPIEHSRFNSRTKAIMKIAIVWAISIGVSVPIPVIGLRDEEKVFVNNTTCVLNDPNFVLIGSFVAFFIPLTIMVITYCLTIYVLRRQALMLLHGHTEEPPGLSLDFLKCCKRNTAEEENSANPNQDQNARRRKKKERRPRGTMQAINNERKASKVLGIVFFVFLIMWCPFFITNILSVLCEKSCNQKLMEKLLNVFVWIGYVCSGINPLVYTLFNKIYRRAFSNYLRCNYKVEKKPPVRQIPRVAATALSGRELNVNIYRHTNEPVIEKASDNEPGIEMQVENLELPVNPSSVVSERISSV
- assay info: 5-HT2C receptor-stimulated calcium mobilization (FLIPR) in CHO cells
- Type: cell-based
- condition details: CHO, percentage of the response to a maximally effective concentration of 5-HT; read-out: 5-HT2C Function Emax (%)
Task for the reader: assign each of the following compounds its reported Emax.
# output: bare number, implied unit %

# get_value(readout= Emax, system= UniProt:P28335) for NCC1Cc2c(Cl)cc3c(c2O1)CCC3 (racemic) [Example 25]
80

Now try COc1cc2c(c3c1C1CCC3C1)OC(CN)C2 (stereo not shown) [Example 15] .
100

Now try NCC1Cc2ccc3ccccc3c2O1 (racemic) [Example 10] .
90

Now try NCC1Cc2ccc3c(c2O1)CCCC3 (racemic) [Example 4] .
80

Now try NCC1Cc2cc(Cl)c3ccccc3c2O1 (racemic) [Example 23] .
90

Now try NCC1Cc2c(ccc3c2CCCC3)O1 (racemic) [Example 14] .
100

Now try CNCC1Cc2cc(Cl)c3ccccc3c2O1 (racemic) [Example 24] .
60

Now try NCC1Cc2cc(Cl)c3c(c2O1)CCC3 (racemic) [Example 29] .
100

Now try Cc1cc2c(c3c1CCC3)OC(CN)C2 (racemic) [Example 7] .
95

Now try NCC1Cc2ccc3c(c2O1)CCC3 (racemic) [Example 1] .
90

###

- study system: human 5-hydroxytryptamine-2C (h5-HT2C) receptor (Homo sapiens)
- Construct: expressed in transfected cells; host or cells: CHO (Chinese Hamster Ovary) cells; membranes
- assay info: [125I]DOI binding affinity at h5-HT2C receptor, CHO cell membranes
- condition details: [125I]DOI displacement, CHO membranes expressing h5-HT2C; read-out: 5-HT2C Affinity Ki
We label by threshold. Values of Ki strictly beneath 10 nM are Yes. Values of 10 nM and up are No.

Criterion: Ki strictly below 10 nM. Is it met by Cc1cc2c(c3c1CCC3)OC(CN)C2 (single isomer, unassigned; (+)) [Example 8] ?
Yes

Now try NCC1Cc2ccc3c(c2O1)CCC3 (single isomer, unassigned; (+)) [Example 2] .
No

Now try NCC1Cc2ccc3c(c2O1)CCCC3 (single isomer, unassigned; (-)) [Example 6] .
No

Now try Cc1cc2c(c3c1CCC3)OC(CN)C2 (single isomer, unassigned; (-)) [Example 9] .
No

Now try NCC1Cc2c(Cl)cc3c(c2O1)CCC3 (single isomer, unassigned; (-)) [Example 26] .
No

Now try NCC1Cc2cc(Cl)c3ccccc3c2O1 (racemic) [Example 23] .
Yes

Now try NCC1Cc2cc(Cl)c3c(c2O1)CCC3 (single isomer, unassigned; (+)) [Example 31] .
Yes

Now try CNCC1Cc2cc(Cl)c3ccccc3c2O1 (racemic) [Example 24] .
Yes

Now try NCC1Cc2ccc3ccccc3c2O1 (racemic) [Example 10] .
No
